# growth inhibition listing for each entry below
# Procedure summary: NCI Yeast Anticancer Drug Screen. Data for the sgs1 mgt1 strain (AID 161);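 also: 0% = growth of cultures given vehicle only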
# Assay setup: S. cerevisiae sgs1 mgt1 strain, at 50.0 µM, active compounds read high
The panel holds about 79,000 compounds, 15% with a hit somewhere; the sample as a whole holds those more often.
Readout type: growth inhibition (%)

Compound	Quantity unit	Readout value
CC(Cl)(CCl)C(=O)NCNC(=O)C(C)(Cl)CCl (stereo not given)	%	8.2
O=C1c2cccc3cccc(c23)C1(O)S(=O)(=O)O (stereo not given)	%	0.85
CCCc1sc(NC(C)=O)nc1-c1ccccc1	%	15.2
COc1cc2c(c3c1c(=O)c1ccc(F)cc1n3C)C=CC(C)(C)O2	%	-16.9
CC1=C(CCC(=O)O)c2cc3nc(cc4[nH]c(cc5[nH]c(cc1n2)c(C)c5C(C)O)c(C)c4C(C)O)C(C)=C3CCC(=O)O (stereo not given)	%	7.7

Just for reference, PubChem BioAssay (NCI) is where these values come from.
